What growth was measured for each of the following?
# Tested on: E. coli TESEC Mtb Alr
# Protocol text: growth (OD600 after 10 h); higher = more growth (less inhibition)
# Condition label: arabinose 10000 nM; compound 0.1 mM; raw OD600 reference: median of DMSO wells 0.264, cell-free background 0.041
Counter-ions that a name gives are not always drawn.

Recorded results for 10 compounds are shown here.
c1ccc2[nH]c(-c3cscn3)nc2c1 = 0.253
O=C1C(O)=C(O)C(=O)C(O)=C1O [Tetrahydroxy-1,4-quinone hydrate] = 0.275
Cc1ccc(C)c(OCCCC(C)(C)C(=O)O)c1 = 0.22
CCN(CC)C(=O)Nc1ccc(OCC(O)CNC(C)(C)C)c(C(C)=O)c1 (stereo unspecified) [Celiprolol HCl] = 0.247
CCCc1cc(=O)[nH]c(=S)[nH]1 = 0.263
Cc1ccc(-c2ncc(Cl)cc2-c2ccc(S(C)(=O)=O)cc2)cn1 = 0.213
O=C(c1ccccc1)c1ccc2n1CCC2C(=O)O (stereo unspecified) = 0.253
CN(C(=O)C(Cl)Cl)c1ccc(OC(=O)c2ccco2)cc1 [Diloxanide furoate] = 0.256
CN[C@@H]1[C@H](O[C@H]2[C@H](O[C@H]3[C@H](O)[C@@H](O)[C@H](NC(=N)N)[C@@H](O)[C@@H]3NC(=N)N)O[C@@H](C)[C@]2(O)CO)O[C@@H](CO)[C@H](O)[C@H]1O [Dihydrostreptomycin sulfate] = 0.0388
CNS(=O)(=O)Cc1ccc2[nH]cc(CCN(C)C)c2c1 [Sumatriptan succinate] = 0.258

For each of the items listed, what is its growth?
1. CCOC(=O)[C@H](CCc1ccccc1)N[C@@H](C)C(=O)N1Cc2ccccc2C[C@H]1C(=O)O [Quinapril HCl]
2. NC(=O)N1c2ccccc2CC(=O)c2ccccc21 [Oxcarbazepine]
3. COc1ccc(/C=C/C(=O)Nc2ccccc2C(=O)O)cc1OC
4. Cc1cc(NC(=O)C2=C(O)c3ccccc3S(=O)(=O)N2C)no1
5. Cn1ccnc1S
6. CN[C@@H]1[C@H](O)[C@H](NC)[C@H]2O[C@@]3(O)C(=O)C[C@@H](C)O[C@H]3O[C@@H]2[C@H]1O [Spectinomycin dihydrochloride]
7. CCCCC1C(=O)N(c2ccccc2)N(c2ccc(O)cc2)C1=O (stereo unspecified)
8. CC(C)NCC(O)c1ccc(NS(C)(=O)=O)cc1 (stereo unspecified) [Sotalol hydrochloride]

1: 0.281; 2: 0.256; 3: 0.27; 4: 0.26; 5: 0.275; 6: 0.0632; 7: 0.262; 8: 0.254
